- study_system: furin, P09958;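 also: purified furin at 1:10 enzyme:substrate in 50 mM HEPES pH 7.5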
- Sequence (P09958 whole entry): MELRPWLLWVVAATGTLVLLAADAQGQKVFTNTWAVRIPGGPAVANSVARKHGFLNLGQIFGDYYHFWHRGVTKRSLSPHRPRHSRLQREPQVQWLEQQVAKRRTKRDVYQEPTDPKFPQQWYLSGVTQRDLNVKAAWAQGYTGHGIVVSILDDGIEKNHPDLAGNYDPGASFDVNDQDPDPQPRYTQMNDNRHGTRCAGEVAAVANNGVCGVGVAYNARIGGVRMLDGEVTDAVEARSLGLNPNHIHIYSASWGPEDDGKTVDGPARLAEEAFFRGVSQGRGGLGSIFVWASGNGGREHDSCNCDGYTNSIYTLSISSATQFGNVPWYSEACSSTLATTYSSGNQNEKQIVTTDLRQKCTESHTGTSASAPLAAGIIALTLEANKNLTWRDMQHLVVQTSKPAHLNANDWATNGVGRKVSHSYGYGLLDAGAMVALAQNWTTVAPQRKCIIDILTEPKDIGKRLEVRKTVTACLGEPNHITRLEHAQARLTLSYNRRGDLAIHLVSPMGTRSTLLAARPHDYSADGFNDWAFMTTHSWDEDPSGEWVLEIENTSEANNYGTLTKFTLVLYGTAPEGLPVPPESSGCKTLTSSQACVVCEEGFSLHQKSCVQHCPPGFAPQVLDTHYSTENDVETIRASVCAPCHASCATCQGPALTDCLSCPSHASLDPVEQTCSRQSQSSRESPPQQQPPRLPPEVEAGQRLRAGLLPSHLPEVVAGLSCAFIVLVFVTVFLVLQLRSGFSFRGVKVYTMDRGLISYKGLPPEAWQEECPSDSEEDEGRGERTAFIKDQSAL
- test_method_notes: furin cleavage Z-score vs untreated control; higher = more cleavage, active = 3.5 or more, inactive = 1 or less, 8 variable residues between constant flanks
- condition: 30 min
This is one part of the list. The hit rate among all sequences tested is not known here.
The entries below are paired with their reported furin cleavage Z-score.

- sequence_record: "CARRARSWAEAGNASASA [FS-1772]"
  furin cleavage Z-score: "4.73 (active)"
- sequence_record: "CARGPRARRSAGNASASA [FS-855]"
  furin cleavage Z-score: "4.95 (active)"
- sequence_record: "CARPWKSVALAGNASASA [FS-1765]"
  furin cleavage Z-score: "-0.932 (inactive)"
- sequence_record: "CAEVEVPCHRAGNASASA [HC2450]"
  furin cleavage Z-score: 1.62
- sequence_record: "CARPRRSLALAGNASASA [FS-2504]"
  furin cleavage Z-score: "8.84 (active)"
- sequence_record: "CARRARAVHDAGNASASA [FS-2769]"
  furin cleavage Z-score: "0.722 (inactive)"
- sequence_record: "CADSGGARRSAGNASASA [FS-226]"
  furin cleavage Z-score: "-0.757 (inactive)"

FYI, the data here is from the supplement of paper PMC3545927.
